Entries and their inhibition in vivo at 24 mg/kg values follow.
- Test system: Mus musculus
- method_description: Compound was tested for inhibitory activity in oral mouse cholesterol biosynthesis assay at the dose of 24 mg/Kg
- Type: functional
Report the figure in % without appending any unit label.

// solved cases for inhibition in vivo at 24 mg/kg follow
Request the reported inhibition in vivo at 24 mg/kg associated with C=CCOC(=O)C1(O)C(C(=O)OCCC(C)C)OC2(CCC(=C)[C@@H](OC(C)=O)[C@H](C)Cc3ccccc3)OC1(C(=O)O)[C@H](OC(=O)/C=C/[C@@H](C)C[C@@H](C)CC)[C@H]2O (stereo partly specified)
38

# get_value(readout='inhibition in vivo at 24 mg/kg', item= C=C(CCC12OC(C(=O)OCCC(C)C)C(O)(C(=O)OCC(=O)OC)C(C(=O)O)(O1)[C@H](OC(=O)/C=C/[C@@H](C)C[C@@H](C)CC)[C@H]2O)[C@@H](OC(C)=O)[C@H](C)Cc1ccccc1 (stereo partly specified) )
43

What value of inhibition in vivo at 24 mg/kg has been recorded for this entry: C=C(CCC12OC(C(=O)OCCC(C)C)C(O)(C(=O)OCc3ccccc3)C(C(=O)O)(O1)[C@H](OC(=O)/C=C/[C@@H](C)C[C@@H](C)CC)[C@H]2O)[C@@H](OC(C)=O)[C@H](C)Cc1ccccc1 (stereo partly specified)
50

# input compound: C=C(CCC12OC(C(=O)OCCC(C)C)C(O)(C(=O)OCC(=O)N(C)C)C(C(=O)O)(O1)[C@H](OC(=O)/C=C/[C@@H](C)C[C@@H](C)CC)[C@H]2O)[C@@H](OC(C)=O)[C@H](C)Cc1ccccc1 (stereo partly specified) ; wanted: its inhibition in vivo at 24 mg/kg
12

Quick one: inhibition in vivo at 24 mg/kg of C=C(CCC12OC(C(=O)OCCC(C)C)C(O)(C(=O)OCCOC)C(C(=O)O)(O1)[C@H](OC(=O)/C=C/[C@@H](C)C[C@@H](C)CC)[C@H]2O)[C@@H](OC(C)=O)[C@H](C)Cc1ccccc1 (stereo partly specified) ?
55

Continuing:
Returns the measured inhibition in vivo at 24 mg/kg for the input compound. Input: C=C(CCC12OC(C(=O)OCCC(C)C)C(O)(C(=O)OCC)C(C(=O)O)(O1)[C@H](OC(=O)/C=C/[C@@H](C)C[C@@H](C)CC)[C@H]2O)[C@@H](OC(C)=O)[C@H](C)Cc1ccccc1 (stereo partly specified)
59
